Consider the following compounds; for each one, report its pIC50.
Biological target: 20S thermophila proteasome (Methanosarcina thermophila)
Sequence (Q9P992 10-210): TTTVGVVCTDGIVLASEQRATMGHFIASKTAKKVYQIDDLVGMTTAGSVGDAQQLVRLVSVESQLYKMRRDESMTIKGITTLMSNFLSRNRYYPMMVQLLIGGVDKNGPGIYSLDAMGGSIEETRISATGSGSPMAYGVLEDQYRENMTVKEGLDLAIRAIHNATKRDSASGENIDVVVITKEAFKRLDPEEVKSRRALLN
Sequence (Q59565 1-247 partner): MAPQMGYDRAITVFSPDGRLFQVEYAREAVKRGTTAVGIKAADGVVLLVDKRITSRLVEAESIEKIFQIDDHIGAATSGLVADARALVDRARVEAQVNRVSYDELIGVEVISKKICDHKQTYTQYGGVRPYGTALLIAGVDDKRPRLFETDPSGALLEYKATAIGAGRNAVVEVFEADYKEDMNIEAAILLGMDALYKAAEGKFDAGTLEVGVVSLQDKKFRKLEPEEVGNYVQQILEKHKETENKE
pIC50: −log10 of the molar value. Where a SMILES comes first, the peptide text is derived from it. The star is where a group is joined. Cbz = O=C(OCc1ccccc1)*; OtBu = CC(C)(C)O*

[[record]]
compound = "CC[C@H](C)[C@H](NC(=O)OCc1ccccc1)C(=O)N[C@@H](CCC(=O)OC(C)(C)C)C(=O)N[C@@H](C)C(=O)N[C@H](C=O)CC(C)C [PSI] (Cbz-IE(OtBu)AL-aldehyde)"
study_target = "20S thermophila proteasome (Methanosarcina thermophila)"
value_measured = "~7.22"


Could you now look at the following compound, please?
Please give the documented pIC50 of CC[C@H](C)[C@H](NC(=O)[C@H]([C@@H](C)CC)N(C)C(C)=O)C(=O)N[C@H](C(=O)N[C@@H](CC(C)C)C(=O)[C@@]1(C)CO1)[C@@H](C)O [Epoxomicin] ~7.22

###

Consider the following molecules; for each one, report its EC50.
Target: 20S thermophila proteasome (Methanosarcina thermophila, UniProt Q9P992)
Construct: purchased CalBiochem, San Diego, Calif
Assay: biochemical
Where a SMILES comes first, the peptide text is derived from it. The star is where a group is joined. Cbz = O=C(OCc1ccccc1)*; OtBu = CC(C)(C)O*
Numbers only, in nM.

[[record]]
molecule = "CC(=O)N[C@@H](CSC(=O)[C@]1([C@@H](O)C(C)C)NC(=O)[C@H](C)[C@@H]1O)C(=O)O [Lactacystin, lactacystin]"
value_measured = 1500

[[record]]
molecule = "CSCCC(C=O)NC(=O)C(CC(C)C)NC(=O)C(CC(C)C)NC(C)=O (stereo not drawn) [N-Acetyl-Leu-Leu-Meth-CHO, N-Acetyl-Leu-Leu-Met-CHO] (Ac-Leu-Leu-Met-aldehyde; configuration not given here)"
value_measured = 4000

[[record]]
molecule = "CC[C@H](C)[C@H](NC(=O)OCc1ccccc1)C(=O)N[C@@H](CCC(=O)OC(C)(C)C)C(=O)N[C@@H](C)C(=O)N[C@H](C=O)CC(C)C [PSI] (Cbz-IE(OtBu)AL-aldehyde)"
value_measured = 35


Could you now look at the following molecule, please?
Please give the documented EC50 of COc1cc(CNC(=O)CCCC/C=C/C(C)C)ccc1O [Capsaicin] 30000
